Each record here notes measured % pump inhibition at 10 μM of compound, BCRP.
Target Under Test: BCRP (Homo sapiens, UniProt Q9UNQ0)
Construct: expressed in transfected cells; host or cells: HEK-293 (ATCC CRL-1573), pcDNA3.1 expression vector (Invitrogen)
Sequence (Q9UNQ0 1-655): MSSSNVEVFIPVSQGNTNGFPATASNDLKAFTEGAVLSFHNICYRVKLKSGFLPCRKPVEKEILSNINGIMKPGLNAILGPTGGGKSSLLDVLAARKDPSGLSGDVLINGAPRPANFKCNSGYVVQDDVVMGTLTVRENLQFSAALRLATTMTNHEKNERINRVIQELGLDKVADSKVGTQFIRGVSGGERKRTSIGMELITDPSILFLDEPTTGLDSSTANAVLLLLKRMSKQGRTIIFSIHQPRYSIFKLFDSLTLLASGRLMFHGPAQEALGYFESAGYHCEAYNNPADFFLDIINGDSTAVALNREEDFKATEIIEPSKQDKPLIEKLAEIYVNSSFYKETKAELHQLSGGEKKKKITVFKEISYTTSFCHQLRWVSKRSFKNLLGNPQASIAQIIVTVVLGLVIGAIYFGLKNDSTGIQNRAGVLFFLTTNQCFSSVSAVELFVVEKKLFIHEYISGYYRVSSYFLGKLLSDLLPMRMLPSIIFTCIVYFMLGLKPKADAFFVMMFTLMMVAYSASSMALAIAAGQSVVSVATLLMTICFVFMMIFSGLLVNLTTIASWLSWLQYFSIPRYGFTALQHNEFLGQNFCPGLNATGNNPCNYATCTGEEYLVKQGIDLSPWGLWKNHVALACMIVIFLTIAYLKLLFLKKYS
Experiment: Flow cytometry, inhibition of mitoxantrone efflux in HEK-293 cells transfected with BCRP
Format: cell-based
Condition Info: 10 μM compound
Peptide text beside a SMILES is read from it. * marks the point of attachment. Cbz = O=C(OCc1ccccc1)*; Boc = CC(C)(C)OC(=O)*; OBn = c1ccc(CO*)cc1; OtBu = CC(C)(C)O*
Note: unit % is implicit; provide only the numeric part.

These solved cases illustrate the format of a correct answer.
# Compound, Units, Recorded Result
records = [
    ("CC(C)(C)OC(=O)[C@H](CCCCNC(=O)OCc1ccccc1)NC[C@@H]1C[C@@H](OCc2ccccc2)CN1C(=O)OC(C)(C)C", "%", 42.3),
    ("CC(C)(C)OC(=O)N[C@@H](CC(=O)OCc1ccccc1)C(=O)N[C@@H](CCCCNC(=O)OCc1ccccc1)C(=O)OC(C)(C)C [Reversin 121, reference compound] (Boc-Asp(OBn)-Lys(Cbz)-OtBu)", "%", 37.2),
    ("CC(C)(C)OC(=O)[C@H](CCCCNC(=O)OCc1ccccc1)NC(=O)[C@@H]1C[C@@H](OCC2CCCCC2)CN1C(=O)OC(C)(C)C", "%", 18.8),
]

Measured % pump inhibition at 10 μM of compound, BCRP, CC(C)(C)OC(=O)[C@H](CCCCNC(=O)OCc1ccccc1)NC(=O)[C@@H]1C[C@@H](OC(=O)Cc2ccccc2)CN1C(=O)OC(C)(C)C (relative stereo) : 10.0
